Experiment: in vitro
Conditions: male, human, Cytotoxicity (%), 25.0 µg/ml
Measured endpoint: cytotoxicity (%)
Give bare numbers, in %.

Would you mind telling me what cytotoxicity value was observed for `COC(=O)Nc1nc2cc(C(=O)c3ccc(F)cc3)ccc2[nH]1` ?
12

----------
Assay: in vitro
Details: male, human, Cytotoxicity (%), 0.500 µg/ml
Measured endpoint: cytotoxicity (%)
Answers are plain numbers, in %.

Fill in: cytotoxicity of `COC(=O)Nc1nc2cc(C(=O)c3ccc(F)cc3)ccc2[nH]1` is ___
0

----------
Assay: in vitro
Details: male, human, Cytotoxicity (%), 12.0 µg/ml
Measured endpoint: cytotoxicity
For clarity, give the value followed by its unit.

cytotoxicity lookup needed for `COC(=O)Nc1nc2cc(C(=O)c3ccc(F)cc3)ccc2[nH]1` , thanks.
0%

----------
Assay: in vitro
Details: male, human, Cytotoxicity (%), 6.0 µg/ml
Measured endpoint: cytotoxicity (%)
Answers are plain numbers, in %.

What value of cytotoxicity has been recorded for this entry: `COC(=O)Nc1nc2cc(C(=O)c3ccc(F)cc3)ccc2[nH]1`
0

----------
Experiment: in vitro
Settings: male, human, Cytotoxicity (%), 19.0 µg/ml
Measured endpoint: cytotoxicity (%)
Numbers only, in %.

Name the recorded cytotoxicity for `COC(=O)Nc1nc2cc(C(=O)c3ccc(F)cc3)ccc2[nH]1` .
7

----------
Assay: in vitro
Conditions: male, human, Cytotoxicity (%), 1.0 µg/ml
Measured endpoint: cytotoxicity
I'd appreciate it if you included the unit after the number.

Could you share which cytotoxicity value was measured for `COC(=O)Nc1nc2cc(C(=O)c3ccc(F)cc3)ccc2[nH]1` ?
0%

----------
Assay: in vitro
Conditions: male, human, Cytotoxicity (%), 0.5 µg/ml
Measured endpoint: cytotoxicity (%)
Numbers only, in %.

Fill in: cytotoxicity of `COC(=O)Nc1nc2cc(C(=O)c3ccc(F)cc3)ccc2[nH]1` is ___
4

----------
Type: in vivo
Conditions: rat, plasma, po, 130 mg/kg
Measured endpoint: AUC(0-t) (ng·h/mL)
Answers are plain numbers, in ng·h/mL.

Which AUC(0-t) is reported for this molecule? `COC(=O)Nc1nc2cc(C(=O)c3ccc(F)cc3)ccc2[nH]1`
16500

----------
Assay: in vitro
Conditions: male, human, Cytotoxicity (%), 14.0 µg/ml
Measured endpoint: cytotoxicity (%)
One number for each entry, in %.

Given `COC(=O)Nc1nc2cc(C(=O)c3ccc(F)cc3)ccc2[nH]1` , state its recorded cytotoxicity.
14

----------
Tested on: CHO-K1 cells
Conditions: Chinese hamster
Measured endpoint: BMDL10 (µg/mL)
Numbers only, in µg/mL.

Lab note: each compound below needs its BMDL10 filled in.
1. CCCSc1ccc2nc(NC(=O)OC)[nH]c2c1
2. COC(=O)Nc1nc2ccc(C(=O)c3ccccc3)cc2[nH]1
3. CCC[S+]([O-])c1ccc2[nH]c(NC(=O)OC)nc2c1 (stereo not shown) [Albendazole sulfoxide, albendazole sulfoxide]
4. COC(=O)Nc1nc2ccccc2[nH]1
5. CCCCNC(=O)n1c(NC(=O)OC)nc2ccccc21
6. COC(=O)Nc1nc2cc(C(=O)c3ccc(F)cc3)ccc2[nH]1
7. CCCOc1ccc2nc(NC(=O)OC)[nH]c2c1

[0.027, 0.018, 0.861, 0.235, 0.348, 0.013, 0.010]

----------
Test: in vitro
Conditions: male, human, Cytotoxicity (%), 0.250 µg/ml
Measured endpoint: cytotoxicity (%)
Numbers only, in %.

Field request: cytotoxicity | item: COC(=O)Nc1nc2cc(C(=O)c3ccc(F)cc3)ccc2[nH]1 [Flubendazole, flubendazole]
0
